B1: CCDC6 (parent)
chain: FTPPTSLTRAGMSYYNSPGLHVQH

Variants of: B1
assay protocol: protein stability index of a GFP-peptide fusion (GPS, HEK-293T) (PSI 1-6); higher = more stable;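 note: lentivirally expressed fusions sorted by FACS into six bins by GFP to DsRed ratio, PSI derived from sequencing read proportions per bin multiplied by bin number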
condition details: c terminus: a fixed tail appended
Please enter yes where protein stability index is greater than or equal to 2, and no where it is lower.

Example results:
[
  {
    "mutation spec": "H24I",
    "answer label": "yes"
  },
  {
    "mutation spec": "G19R",
    "answer label": "yes"
  },
  {
    "mutation spec": "T2N",
    "answer label": "no"
  },
  {
    "mutation spec": "T2D",
    "answer label": "yes"
  },
  {
    "mutation spec": "G19F",
    "answer label": "yes"
  }
]

Quick check, protein stability index >= 2? `T2G`
yes

Quick check, protein stability index >= 2? `P4D`
yes

Quick check, protein stability index >= 2? `H21V`
yes

Quick check, protein stability index >= 2? `N16D`
yes

Quick check, protein stability index >= 2? `R9S`
no

Quick check, protein stability index >= 2? `G19I`
no

Quick check, protein stability index >= 2? `F1H`
yes

Quick check, protein stability index >= 2? `L7D`
no

Quick check, protein stability index >= 2? `S17E`
no

Quick check, protein stability index >= 2? `P18S`
no

Quick check, protein stability index >= 2? `S17F`
yes

Quick check, protein stability index >= 2? `H21P`
no

Quick check, protein stability index >= 2? `S6N`
no
